// provenance: patent US20120077731A1

In this section, each of the binders is paired with its reported IC50 (nM) + HSA, XG-1 cell proliferation.
- EXPERIMENTAL SYSTEM: T1, Human membrane IL-6R on cells (human, UniProt P08887 20-468)
- T1 sequence (looked up): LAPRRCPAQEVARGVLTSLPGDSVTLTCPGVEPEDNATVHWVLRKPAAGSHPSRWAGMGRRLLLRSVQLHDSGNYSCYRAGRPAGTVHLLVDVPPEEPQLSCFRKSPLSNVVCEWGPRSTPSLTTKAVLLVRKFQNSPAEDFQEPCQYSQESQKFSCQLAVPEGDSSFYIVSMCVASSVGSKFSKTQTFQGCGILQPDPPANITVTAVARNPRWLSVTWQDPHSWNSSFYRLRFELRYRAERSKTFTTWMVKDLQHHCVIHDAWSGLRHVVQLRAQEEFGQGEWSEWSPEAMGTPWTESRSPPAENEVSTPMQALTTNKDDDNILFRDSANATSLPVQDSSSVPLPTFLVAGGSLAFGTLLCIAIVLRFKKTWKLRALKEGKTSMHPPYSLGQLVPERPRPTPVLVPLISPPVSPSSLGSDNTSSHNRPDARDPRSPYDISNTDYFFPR
- PROTOCOL NOTES: cell-based or functional assay
Please answer in the form of a number followed by its unit of measurement.

Which IC50 (nM) + HSA, XG-1 cell proliferation value is on record for IL6R03 (VHH, also called PMP31A4; not shown: C-terminal c-myc and (His)6 tags) VHH: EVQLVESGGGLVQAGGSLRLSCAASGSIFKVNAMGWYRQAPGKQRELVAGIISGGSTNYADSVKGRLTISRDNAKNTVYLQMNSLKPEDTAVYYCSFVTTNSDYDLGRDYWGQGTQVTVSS ? 17.5 nM

Entry IL6R14 (VHH, also called PMP40H5; not shown: C-terminal c-myc and (His)6 tags) VHH: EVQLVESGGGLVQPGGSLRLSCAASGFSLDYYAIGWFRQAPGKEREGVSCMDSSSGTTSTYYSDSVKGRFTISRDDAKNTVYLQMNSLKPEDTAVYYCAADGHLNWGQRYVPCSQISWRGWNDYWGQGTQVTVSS please 0.8 nM

Follow-up entry: IL6R09 (VHH, also called PMP34G9; not shown: C-terminal c-myc and (His)6 tags) VHH: EVQLVESGGGLVQAGGSLRLSCAASGRTSSSYDMTWYRQVPGKEREFVAVISWSGGSTYYADSVKGRFTISRDNAKNTVYLQMNSLKPEDTAIYYCNAYTGGGDDYWGQGTQVTVSS 3 nM
